# SUBJECT_OF_TEST: Prostaglandin G/H synthase 2 (Homo sapiens, UniProt P35354)
# Sequence (P35354 whole entry): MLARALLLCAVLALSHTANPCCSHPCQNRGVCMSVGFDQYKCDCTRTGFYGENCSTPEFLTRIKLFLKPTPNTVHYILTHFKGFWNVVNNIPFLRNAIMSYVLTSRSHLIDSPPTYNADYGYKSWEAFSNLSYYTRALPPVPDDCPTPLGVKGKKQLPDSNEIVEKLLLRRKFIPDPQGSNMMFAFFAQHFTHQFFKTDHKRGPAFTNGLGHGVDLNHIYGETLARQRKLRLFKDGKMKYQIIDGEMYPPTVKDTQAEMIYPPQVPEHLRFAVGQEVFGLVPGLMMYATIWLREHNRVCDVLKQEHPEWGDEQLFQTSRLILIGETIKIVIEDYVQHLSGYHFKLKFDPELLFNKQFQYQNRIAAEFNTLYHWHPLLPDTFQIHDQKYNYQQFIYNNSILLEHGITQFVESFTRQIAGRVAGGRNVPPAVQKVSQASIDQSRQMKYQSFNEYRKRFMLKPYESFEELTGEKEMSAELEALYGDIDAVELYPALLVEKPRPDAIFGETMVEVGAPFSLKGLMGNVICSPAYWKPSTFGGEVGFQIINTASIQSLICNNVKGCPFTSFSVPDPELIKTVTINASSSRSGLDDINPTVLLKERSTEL
# EXPERIMENTAL_PROTOCOL: Inhibition of human COX2
OBSERVATION_TYPE: IC50 (µM)
One number for each entry, in µM.

O=C(c1ccccc1)c1ccc2n1CC[C@@H]2C(=O)O ... 1.46

Okay, next one:
Documented IC50 of O=C(c1ccccc1)c1ccc2n1CCC2C(=O)O (racemic) : 3.5
